Molecular target: T1, Human PCSK9 Alexa Fluor 647 (human, UniProt Q8NBP7 31-692, limits assumed, Alexa Fluor 647 label (site not stated))
T1 construct: Labelled tracer of the TR-FRET assay, 16 nM stock; also called proprotein convertase subtilisin/kexin type 9
T1 sequence (Q8NBP7 31-692 limits assumed): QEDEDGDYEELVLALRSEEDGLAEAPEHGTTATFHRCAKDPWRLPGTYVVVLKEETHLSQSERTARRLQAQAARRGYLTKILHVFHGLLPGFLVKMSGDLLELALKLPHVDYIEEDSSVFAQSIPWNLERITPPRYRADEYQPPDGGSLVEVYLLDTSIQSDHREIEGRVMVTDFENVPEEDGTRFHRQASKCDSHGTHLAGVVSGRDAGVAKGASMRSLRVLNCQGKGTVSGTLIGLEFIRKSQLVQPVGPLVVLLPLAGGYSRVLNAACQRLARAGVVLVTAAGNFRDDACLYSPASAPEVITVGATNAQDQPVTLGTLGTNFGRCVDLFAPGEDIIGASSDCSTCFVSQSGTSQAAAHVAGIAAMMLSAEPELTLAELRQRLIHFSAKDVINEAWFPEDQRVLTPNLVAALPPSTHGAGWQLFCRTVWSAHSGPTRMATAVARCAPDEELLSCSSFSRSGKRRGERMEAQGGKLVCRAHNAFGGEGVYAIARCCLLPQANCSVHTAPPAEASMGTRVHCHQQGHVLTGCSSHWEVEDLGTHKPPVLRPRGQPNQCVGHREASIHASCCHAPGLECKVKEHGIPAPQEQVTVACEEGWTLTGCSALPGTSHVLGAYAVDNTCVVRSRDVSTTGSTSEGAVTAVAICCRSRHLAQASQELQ
Test: TR-FRET competition: PCSK9-Alexa Fluor 647 vs LDLR ECD-Eu kryptate
Bridge positions count the residues as written; N and C are the ends. Square brackets hold non-standard residues; d marks the D form. Bip = N[C@@H](Cc1ccc(-c2ccccc2)cc1)C(=O)O; NMeF = CN[C@@H](Cc1ccccc1)C(=O)O; NMeE = CN[C@@H](CCC(=O)O)C(=O)O; NMeA = CN[C@@H](C)C(=O)O
Hi there, I'd appreciate the recorded IC50 for every entry that follows.
Return type: number; implicit unit nM.

Assign IC50 to the following record: {CH2CO}-FVNTTA[NMeF][Bip][NMeA]QAPCG-NH2 (thioether N-13; SMILES CC(C)[C@@H]1NC(=O)[C@H](Cc2ccccc2)NC(=O)CSC[C@@H](C(=O)NCC(N)=O)NC(=O)[C@@H]2CCCN2C(=O)[C@H](C)NC(=O)[C@H](CCC(N)=O)NC(=O)[C@H](C)N(C)C(=O)[C@H](Cc2ccc(-c3ccccc3)cc2)NC(=O)[C@H](Cc2ccccc2)N(C)C(=O)[C@H](C)NC(=O)[C@H]([C@@H](C)O)NC(=O)[C@H]([C@@H](C)O)NC(=O)[C@H](CC(N)=O)NC1=O, also called 1-18; Ex. No. 1-18) [Ac*-F-V-N-T-T-A-(N-Me)F-B-(N-Me)A-Q-A-P-C*-G-NH2] 11

Assign IC50 to the following record: {CH2CO}-FVDTTS[NMeF][Bip][NMeE]NSPCG-NH2 (thioether N-13; SMILES CC(C)[C@@H]1NC(=O)[C@H](Cc2ccccc2)NC(=O)CSC[C@@H](C(=O)NCC(N)=O)NC(=O)[C@@H]2CCCN2C(=O)[C@H](CO)NC(=O)[C@H](CC(N)=O)NC(=O)[C@H](CCC(=O)O)N(C)C(=O)[C@H](Cc2ccc(-c3ccccc3)cc2)NC(=O)[C@H](Cc2ccccc2)N(C)C(=O)[C@H](CO)NC(=O)[C@H]([C@@H](C)O)NC(=O)[C@H]([C@@H](C)O)NC(=O)[C@H](CC(=O)O)NC1=O, also called 1-1; Ex. No. 1-1) [Ac*-F-V-D-T-T-S-(N-Me)F-B-(N-Me)E-N-S-P-C*-G-NH2] 2.6

Assign IC50 to the following record: {CH2CO}-FVDTTS[NMeF][Bip][NMeA]NSPCG-NH2 (thioether N-13; SMILES CC(C)[C@@H]1NC(=O)[C@H](Cc2ccccc2)NC(=O)CSC[C@@H](C(=O)NCC(N)=O)NC(=O)[C@@H]2CCCN2C(=O)[C@H](CO)NC(=O)[C@H](CC(N)=O)NC(=O)[C@H](C)N(C)C(=O)[C@H](Cc2ccc(-c3ccccc3)cc2)NC(=O)[C@H](Cc2ccccc2)N(C)C(=O)[C@H](CO)NC(=O)[C@H]([C@@H](C)O)NC(=O)[C@H]([C@@H](C)O)NC(=O)[C@H](CC(=O)O)NC1=O, also called 1-3; Ex. No. 1-3) [Ac*-F-V-D-T-T-S-(N-Me)F-B-(N-Me)A-N-S-P-C*-G-NH2] 2.1

Assign IC50 to the following record: FVSTTSFXADRPCG (not fully specified; N-terminal acetyl (Ac*) joined by a sulfide bond to the side chain of Cys13 (cyclic); 7: L-(N-Me)Phe; 8: L-Bip; 9: L-(N-Me)Ala; C-terminal amide (NH2), also called 1-9; Ex. No. 1-9) [Ac*-F-V-S-T-T-S-(N-Me)F-B-(N-Me)A-D-R-P-C*-G-NH2] 3

Assign IC50 to the following record: {CH2CO}-FVPTT[Bip][NMeA][Bip][NMeA]AAPC-NHEt (thioether N-13; SMILES CCNC(=O)[C@@H]1CSCC(=O)N[C@@H](Cc2ccccc2)C(=O)N[C@@H](C(C)C)C(=O)N2CCC[C@H]2C(=O)N[C@@H]([C@@H](C)O)C(=O)N[C@@H]([C@@H](C)O)C(=O)N[C@@H](Cc2ccc(-c3ccccc3)cc2)C(=O)N(C)[C@@H](C)C(=O)N[C@@H](Cc2ccc(-c3ccccc3)cc2)C(=O)N(C)[C@@H](C)C(=O)N[C@@H](C)C(=O)N[C@@H](C)C(=O)N2CCC[C@H]2C(=O)N1, also called 3-4; Ex. No. 3-4) [Ac*-F-V-P-T-T-B-(N-Me)A-B-(N-Me)A-A-A-P-C*-NHEt] 1.4

Assign IC50 to the following record: FVSTTXAXAPSPCG (not fully specified; N-terminal acetyl (Ac*) joined by a sulfide bond to the side chain of Cys13 (cyclic); 6: L-Bip; 7: L-(N-Me)Ala; 8: L-Bip; 9: L-(N-Me)Ala; C-terminal amide (NH2), also called 1-20; Ex. No. 1-20) [Ac*-F-V-S-T-T-B-(N-Me)A-B-(N-Me)A-P-S-P-C*-G-NH2] 8.1

Assign IC50 to the following record: {CH2CO}-FVPTT[Bip][NMeA][Bip][NMeA]EAPC-NHEt (thioether N-13, also called 3-3; Ex. No. 3-3) [Ac*-F-V-P-T-T-B-(N-Me)A-B-(N-Me)A-E-A-P-C*-NHEt] 2.2

Assign IC50 to the following record: {CH2CO}-FVDTTS[NMeA][Bip][NMeA]KSPCG-NH2 (thioether N-13; SMILES CC(C)[C@@H]1NC(=O)[C@H](Cc2ccccc2)NC(=O)CSC[C@@H](C(=O)NCC(N)=O)NC(=O)[C@@H]2CCCN2C(=O)[C@H](CO)NC(=O)[C@H](CCCCN)NC(=O)[C@H](C)N(C)C(=O)[C@H](Cc2ccc(-c3ccccc3)cc2)NC(=O)[C@H](C)N(C)C(=O)[C@H](CO)NC(=O)[C@H]([C@@H](C)O)NC(=O)[C@H]([C@@H](C)O)NC(=O)[C@H](CC(=O)O)NC1=O, also called 1-7; Ex. No. 1-7) [Ac*-F-V-D-T-T-S-(N-Me)A-B-(N-Me)A-K-S-P-C*-G-NH2] 410

Assign IC50 to the following record: FVSTTXAXADSPCG (not fully specified; N-terminal acetyl (Ac*) joined by a sulfide bond to the side chain of Cys13 (cyclic); 6: L-Bip; 7: L-(N-Me)Ala; 8: L-Bip; 9: L-(N-Me)Ala; C-terminal amide (NH2), also called 1-8; Ex. No. 1-8) [Ac*-F-V-S-T-T-B-(N-Me)A-B-(N-Me)A-D-S-P-C*-G-NH2] 2.3

Assign IC50 to the following record: FVSTTXAXAESPCG (not fully specified; N-terminal acetyl (Ac*) joined by a sulfide bond to the side chain of Cys13 (cyclic); 6: L-Bip; 7: L-(N-Me)Ala; 8: L-Bip; 9: L-(N-Me)Ala; C-terminal amide (NH2), also called 1-25; Ex. No. 1-25) [Ac*-F-V-S-T-T-B-(N-Me)A-B-(N-Me)A-E-S-P-C*-G-NH2] 2.5

Assign IC50 to the following record: {CH2CO}-FVDSTY[NMeA][Bip][NMeA]NHPCG-NH2 (thioether N-13; SMILES CC(C)[C@@H]1NC(=O)[C@H](Cc2ccccc2)NC(=O)CSC[C@@H](C(=O)NCC(N)=O)NC(=O)[C@@H]2CCCN2C(=O)[C@H](Cc2c[nH]cn2)NC(=O)[C@H](CC(N)=O)NC(=O)[C@H](C)N(C)C(=O)[C@H](Cc2ccc(-c3ccccc3)cc2)NC(=O)[C@H](C)N(C)C(=O)[C@H](Cc2ccc(O)cc2)NC(=O)[C@H]([C@@H](C)O)NC(=O)[C@H](CO)NC(=O)[C@H](CC(=O)O)NC1=O, also called 1-4; Ex. No. 1-4) [Ac*-F-V-D-S-T-Y-(N-Me)A-B-(N-Me)A-N-H-P-C*-G-NH2] 4

Assign IC50 to the following record: FVSTTSFXAESPCG (not fully specified; N-terminal acetyl (Ac*) joined by a sulfide bond to the side chain of Cys13 (cyclic); 7: L-(N-Me)Phe; 8: L-Bip; 9: L-(N-Me)Ala; C-terminal amide (NH2), also called 1-12; Ex. No. 1-12) [Ac*-F-V-S-T-T-S-(N-Me)F-B-(N-Me)A-E-S-P-C*-G-NH2] 14
